Values compiled from ChEMBL document CHEMBL1201862.

# target-of-assay: Streptokinase A (Streptococcus pyogenes serotype M1)
# assay-overview: viability-normalized secreted streptokinase activity reduction – plasminogen activation absorbance, OD405, dose response (AID 1914);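 further: secreted streptokinase activity via plasminogen activation per viability signal from cell pellet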
# Assay type: functional, Streptococcus pyogenes M1 GAS
Calls of active or inactive are those of the source.
Property: EC50; scope: individual compounds
outcome-measure: EC50

CC(C)c1ccc2nc3sc(C(=O)N4CCc5ccccc5C4)c(N)c3cc2c1    101 µM (active)
Cc1ccc(-c2csc(NNC(=O)c3ccccc3)n2)cc1    > 150 µM (not active)
COc1ccc(NC(=O)c2cnn3c(O)cc(C4CCN(C(=O)OC(C)(C)C)CC4)nc23)cc1Cl    > 150 µM (not active)
COc1ccc(NS(=O)(=O)c2cccc(NC(=O)CCC(=O)c3ccc(Cl)cc3)c2)cc1    > 150 µM (not active)
FC(F)(F)Oc1ccc(N=C(S)Nc2ccc(OC(F)(F)F)cc2)cc1    > 150 µM (not active)
Oc1c(Br)cc(Br)cc1Oc1ccc(Br)cc1Br    0.753 µM (active)
Sc1nnc(-c2cc(-c3ccccc3)[nH]n2)n1/N=C/c1ccc(Br)s1    > 150 µM (not active)
O=C(CNC(=O)c1ccc2c(c1)OCO2)N/N=C/c1cc(Br)ccc1O    > 150 µM (not active)
Cc1c(C)n(Cc2ccc(F)cc2)c2ccc(C(=O)N3CCN(c4ccccn4)CC3)cc12    146 µM (inconclusive)
O=C(Nc1cccc(F)c1)N1CCCCCC1    > 150 µM (not active)
Cc1ccc(NS(=O)(=O)c2ccc(C3CCCCC3)cc2)cc1    4.17 µM (active)

###

Entries and their EC50
# assay-overview: fluconazole-exposed Candida albicans growth modulators – fluorescence, retest, confirmation (AID 2467)
# Assay type: functional, cell-based
The source made the active and inactive calls.
outcome-measure: EC50

Cc1ccc(-c2c[n+](-c3ccc(OC(F)F)cc3)c3n2CCCCC3)cc1    > 38 µM (not active)
CCn1c(=O)c(C(=O)Nc2ncccc2C)c(O)c2ccccc21    0.119 µM (active)
COc1ccc(C2N=C(Nc3ccc(C)cc3)Nc3nc(C)cc(=O)n32)cc1 (configuration not stated)    > 38 µM (not active)
C/C(=N\OCc1ccc(C#N)cc1)c1cc2ccccc2o1    > 38 µM (not active)
Oc1c(Br)cc(Br)cc1Oc1ccc(Br)cc1Br    > 38 µM (not active)
C/C(=N\O)c1cc(Cl)cc(Cl)c1O    4.41 µM (active)
CCN(CC)c1nc(N)c2c(N)nc3c(c2c1C#N)CC(c1ccccc1)O3 (configuration not stated)    > 38 µM (not active)

###

# assay-overview: Luminescence Cell-Based Dose Confirmation HTS to Identify Activators of 5'UTR Stem-Loop Driven Alpha-Synuclein mRNA Translation in H4 Neuroglioblastoma Cells. [Related pubchem assays: 1829 (Project Summary), 1814 (Primary HTS)]
# Type: functional
Activity calls are given as the source filed them.
outcome-measure: EC50

Cn1c2ccccc2c2cc(C(=O)N3CCN(CCO)CC3)sc21    > 120 µM (not active)
CC(C)OC(=O)Cn1nnc2c(cnn2-c2ccccc2)c1=O    13.4 µM (active)
COc1cccc(/C=N/NC(=O)c2[nH]nc3c2CCc2ccccc2-3)c1    > 120 µM (not active)
c1ccc(CNc2ncnc3c2ncn3C2CCCCO2)cc1 (stereo unspecified)    5.99 µM (active)
CC(C)C(OC(=O)c1ccccc1)c1nccc2ccccc12 (stereo unspecified)    21.5 µM (active)
O=Cc1c(N2CCN(c3ccccc3)CC2)nc2ccccn2c1=O    > 120 µM (not active)

###

# EC50 per entry
# target-of-assay: Short transient receptor potential channel 4 (Mus musculus)
# assay-overview: block of DAMGO-driven TRPC4 calcium entry – cell-based, HEK293 TRPC4/mu-opioid, Fluo-4 calcium, dose response (AID 434942);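 further: potency of inhibitors blocking the TRPC4 calcium response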
# Format: functional
The source made the active and inactive calls.
outcome-measure: EC50

COc1ccc(NC(=O)c2cnn3c(O)cc(C4CCN(C(=O)OC(C)(C)C)CC4)nc23)cc1Cl    1.33 µM (active)
CC(C)=CCN1CCN(Cc2cccc3nonc23)CC1CCO (stereo unspecified)    2.99 µM (active)
Cn1cc(-c2nc3ccccc3[nH]2)c2ccccc21    3.76 µM (active)
CCCN1CN(Cc2ccco2)c2nc3ccccc3n2C1    1.88 µM (active)
CN(C)c1ccc(NC(=O)CN2C3CCCC2CC(NC(=O)c2ccccc2)C3)cc1 (stereo unspecified)    3.35 µM (active)
O=C(CCN1CCc2ccccc2C(O)(c2ccccc2)C1)c1ccc2c(c1)OCCO2 (stereo unspecified)    8.41 µM (active)

###

For Cytochrome P450 2C9 (Homo sapiens, UniProt P11712), measured AC50 is reported for the entries below.
outcome-measure: AC50

Cc1ccc2c(c1)nnn2C1CCN(S(=O)(=O)c2ccc(C(=O)N3C(C)CCCC3C)cc2)CC1 (stereo unspecified)    15.8 µM (inconclusive)
COC(=O)COc1ccc(/C=C2/SC(=O)N(CC(=O)N3CCCC3)C2=O)cc1Br    10 µM (inconclusive)
C(=C1/CCCC2=C1Nc1ncnn1C2c1ccccc1)/c1ccccc1 (stereo unspecified)    7.94 µM (inconclusive)
Cc1cc(C)n(CC(O)COc2ccccc2)n1 (stereo unspecified)    0.0355 µM (inconclusive)
COc1ccc2[nH]cc(CCNc3ncnc4ccc(-c5c(C)noc5C)cc34)c2c1    0.501 µM (inconclusive)
CN(Cc1ccco1)c1ncnc2ccc(-c3cccc(NS(C)(=O)=O)c3)cc12    0.794 µM (inconclusive)
CCc1sc(N(C(=O)Cc2ccccc2)c2cccc(F)c2)nc1-c1ccc(C)cc1    6.31 µM (inconclusive)
Nc1ncc(-c2ccccc2)n1CC1CCCO1 (stereo unspecified)    14.1 µM (inconclusive)
Cc1ccc(-n2c(-c3ccccc3)cc(=O)nc2C)cc1    7.08 µM (inconclusive)
COc1ccc(NC(=O)N2CCCC3(CCN(C(=O)c4ccc(OC)cc4)CC3)C2)cc1    39.8 µM (inconclusive)
CCc1ccc(OCC(=O)NC(=S)Nc2ccc(F)cc2)c(Br)c1    3.16 µM (inconclusive)

###

# target-of-assay: Peroxisome proliferator-activated receptor gamma/Nuclear receptor coactivator 2 (Homo sapiens);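 further: agonist potency for raising coactivator recruitment to the receptor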
# Assay type: functional
Active and inactive are the calls of the source.
Form field: EC50 (one value per entry).
outcome-measure: EC50

O=C(CSc1ncnc2c1nnn2Cc1ccccc1F)N1CCN(c2ccccc2)CC1    > 79.4 µM (not active)
COc1ccc(-c2cc(-c3cccs3)c(C#N)c(SCC(=O)NCc3ccccc3OC)n2)cc1    8.22 µM (active)
CC(OC(=O)c1cc2sccc2n1C)C(=O)NCc1cccs1 (stereo not given)    > 79.4 µM (not active)
CCOc1cccc2cc(C(=O)Nc3cc(C)on3)c(=O)oc12    22.4 µM (not active)
Cc1nn(-c2ccccn2)c2c1-c1nc(N3CCOCC3)ncc1CC2    > 79.4 µM (not active)

###

# target-of-assay: Large T antigen (Simian virus 40, UniProt P03070);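 further: Confirmatory-stage PubChem screen for compounds that inhibit SV40 T antigen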
# Type: functional, Betapolyomavirus macacae
The source made the active and inactive calls.
outcome-measure: IC50

COc1cc(SC)ccc1C(=O)N1CCN(c2ccc(O)cc2)CC1    5.95 µM (active)
CN1CN(C)c2cccc3cccc1c23    73.9 µM (active)
CN(C)/C=C(\C#N)C(=O)Nc1ccc(O)cc1F    17.6 µM (active)
CCS(=O)(=O)C1=NN2C(=N)/C(=C\c3ccc(OC(=O)c4ccco4)c(Br)c3)C(=O)N=C2S1    > 100 µM (active)
CCOC(=O)c1c(NC(C)=O)sc2c(O)c(Br)cc(Br)c12    56.7 µM (active)
Oc1cc(O)c2c(c1)O[C@H](c1ccc(O)c(O)c1)[C@@H](O)C2    11.4 µM (active)
O=c1[nH]c(=O)c2nnc(N/N=C\c3ccc(O)cc3)nc2[nH]1    16.8 µM (active)
Cc1cc(C)n(CCc2nc(-c3ccco3)cs2)n1    65.6 µM (active)
CCn1c(/C=C/c2ccc(O)c(O)c2)nc2ccccc2c1=O    35.6 µM (active)
Oc1ccc(O)cc1 [HYDROQUINONE]    7.76 µM (active)
OCCNc1nc(Nc2ccc(O)cc2)nc2ccccc12    4.5 µM (active)
N=C1/C(=C\c2coc3ccc(O)cc3c2=O)C(=O)N=C2SC=CN12    15.8 µM (active)
CN(C)c1ccc(NC(=O)CN2C3CCCC2CC(NC(=O)c2ccccc2)C3)cc1 (centres undefined)    7.46 µM (active)
OCC1CCCN(C(=S)Nc2ccc(Nc3ccccc3)cc2)C1 (centres undefined)    8.16 µM (active)

###

# target-of-assay: Fatty acid synthase (Homo sapiens)
# assay-overview: inhibition of human FAS-TE enzyme activity – biochemical, kinetic fluorescence intensity, dose response (AID 624326);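 further: rate of fluorescence rise from hydrolysis of a fluorogenic O-methyl fluorescein ester substrate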
# Format: functional
Active and inactive are the calls of the source.
Outcome codes: label 1 for active, label 0 for inactive

Cc1ccc(S(=O)(=O)Nc2ccccc2C(=O)Nc2nc(-c3ccc(F)cc3)cs2)cc1    label 1
Cc1ccc([N+](=O)[O-])cc1NC(=O)CCCOc1ccccc1    label 0
O=C(c1cccc(S(=O)(=O)N2CCCC2)c1)c1cccc(S(=O)(=O)N2CCCC2)c1    label 1
Cc1nc2scc(-c3ccc(Cl)cc3)c2c(=O)o1    label 1
CC(=O)c1ccc(N(C(=O)c2ccco2)C(C(=O)NC2CCCC2)c2ccc(N3CCOCC3)cc2)cc1 (configuration not stated)    label 1
O=[N+]([O-])c1ccc(CN2CC(N3CCC(Cc4ccccc4)CC3)CS2(=O)=O)cc1 (configuration not stated)    label 1
CCc1ccc(NS(=O)(=O)c2cc3c(cc2C)n(C)c(=O)c(=O)n3C)cc1    label 1
